Origin of values: ChEMBL document CHEMBL1144399

target: Melanocortin receptor 5 (Mus musculus, UniProt P41149); assay: Effective concentration against mouse melanocortin receptor-5 expressed in 293 HEK cells
Sequence (P41149 whole entry): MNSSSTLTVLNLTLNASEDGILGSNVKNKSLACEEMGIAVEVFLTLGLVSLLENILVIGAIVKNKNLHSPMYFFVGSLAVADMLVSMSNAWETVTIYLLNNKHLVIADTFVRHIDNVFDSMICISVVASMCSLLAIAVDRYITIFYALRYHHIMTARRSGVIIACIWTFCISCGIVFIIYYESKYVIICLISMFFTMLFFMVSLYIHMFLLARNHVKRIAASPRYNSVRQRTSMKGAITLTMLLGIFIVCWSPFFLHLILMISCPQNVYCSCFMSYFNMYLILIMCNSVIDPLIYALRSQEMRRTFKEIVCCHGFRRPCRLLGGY
Where a SMILES comes first, the peptide text is derived from it. [ ]: non-standard residue; d: D form. Gly(N-(CH2)3-guanidino) = N=C(N)NCCCNCC(=O)O; Nle = CCCC[C@H](N)C(=O)O; Nlys = NCCCCNCC(=O)O
recorded-endpoint: pEC50
Please note pEC50 is a logarithmic value: minus log10 of concentration in mol/L. Answer with that number alone.

Answered examples (4):
CCCCN(CC(=O)NCC(=O)N[C@@H](CCCCN)C(=O)N[C@H](Cc1ccccc1)C(=O)N(CCCN=C(N)N)CC(=O)N[C@@H](Cc1c[nH]c2ccccc12)C(=O)NCC(N)=O)C(C)=O :: 5.20
CCCC[C@H](NC(C)=O)C(=O)NCC(=O)N(CCCCN)CC(=O)NC(Cc1ccccc1)C(=O)N(CCCNC(=N)N)CC(=O)N(CCc1c[nH]c2ccccc12)CC(=O)NCC(N)=O (single isomer, unassigned) :: 6.00
CCCCN(CC(=O)NCC(=O)N[C@@H](CCCCN)C(=O)N[C@H](Cc1ccccc1)C(=O)N[C@@H](CCCN=C(N)N)C(=O)N[C@@H](Cc1c[nH]c2ccccc12)C(=O)NCC(N)=O)C(C)=O :: 6.10
CCCC[C@H](NC(C)=O)C(=O)NCC(=O)N[C@@H](CCCCN)C(=O)N[C@H](Cc1ccccc1)C(=O)N(CCCNC(=N)N)CC(=O)N(CCc1c[nH]c2ccccc12)CC(=O)NCC(N)=O :: 7.80

Proceeding to the next compound to report its pEC50.
Q: Under Melanocortin receptor 5 (Mus musculus, UniProt P41149): pEC50 value of CCCC[C@H](NC(C)=O)C(=O)NCC(=O)N(CCCCN)CC(=O)N[C@@H](Cc1ccccc1)C(=O)N(CCCN=C(N)N)CC(=O)N[C@@H](Cc1c[nH]c2ccccc12)C(=O)NCC(N)=O (Ac-[Nle]G[Nlys]F[Gly(N-(CH2)3-guanidino)]WG-NH2) ?
Result: 6.30
